test: recombinant UMI read abundance after kanamycin selection (control-corrected) (log10(CPM+1)); higher = more efficient recombination; extreme values may be limits of the assay; sequences stand for … in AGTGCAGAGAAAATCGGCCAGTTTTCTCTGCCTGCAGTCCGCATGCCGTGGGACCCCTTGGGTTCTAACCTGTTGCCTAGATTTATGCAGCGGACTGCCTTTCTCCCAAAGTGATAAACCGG…AGGTTGGTTTCACT; site = the 11-nt donor;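 further: IS621 bridge recombinase in Escherichia coli cells against a fixed T5 target plasmid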
Recorded measurements of recombinant UMI read abundance (log10), one per entry
Respond with the number and no other words.

{"biopolymer sequence": "TGGGTGCCATGGACCGGTTTTCCCGGTAATCCGTATTTGAC (site TGGGTGCCTGT)", "recombinant UMI read abundance (log10)": 0}
{"biopolymer sequence": "GAAGATTCATGGACCGGTTTTCCCGGTAATCCGTATTTGTT (site TAAGATTCTAA)", "recombinant UMI read abundance (log10)": 2.36}
{"biopolymer sequence": "CGCAATACATGGACCGGTTTTCCCGGTAATCCGTATTTGGT (site CGCAATACTAC)", "recombinant UMI read abundance (log10)": 1.25}
{"biopolymer sequence": "ACAGTATCATGGACCGGTTTTCCCGGTAATCCGTATTTGCA (site CGAGTATCTTG)", "recombinant UMI read abundance (log10)": 1.36}
{"biopolymer sequence": "CGTGGCACATGGACCGGTTTTCCCGGTAATCCGTATTTGTT (site CGTGGGACTAA)", "recombinant UMI read abundance (log10)": 0.00775}
{"biopolymer sequence": "GTGCATGCATGGACCGGTTTTCCCGGTAATCCGTATTTGGG (site GTGCATGCTCC)", "recombinant UMI read abundance (log10)": 0.746}

(Q) Could you share which recombinant UMI read abundance (log10) value was measured for GATTACCCATGGACCGGTTTTCCCGGTAATCCGTATTTGCT (site GATTATCCTAG) ?
(A) 0

(Q) Using the record for GTAGTCGCATGGACCGGTTTTCCCGGTAATCCGTATTTGCG (site GTAGGCGCTCG) , report its recombinant UMI read abundance (log10).
(A) 0.0201

(Q) Bench note: what recombinant UMI read abundance (log10) did TGCGGGCCATGGACCGGTTTTCCCGGTAATCCGTATTTGCT (site TGCGGGCCTAG) show?
(A) 0
